- Test system: MIA-PaCa-2
- Method notes: Cytotoxicity assay (MTS, 72 hours)
- Format: cell-based
- Condition label: Table 3, Panc
Measured property: pIC50
In textbook form, pIC50 equals minus log to base ten of the concentration in mol/L.

**Q:** Please supply the value of reported pIC50 for the item C[C@H](NC(=O)/C(C#N)=C/c1cccc(Br)n1)c1ccccc1 [WP1066, reference compound]
**A:** 5.77

###

- Tested on: SU.86.86
- Method notes: Cytotoxicity assay (MTS, 72 hours)
- Type: cell-based
- Condition label: Homo sapiens, SU.86.86, Table 3, Panc
- Protocol: Tumor cell lines were maintained in DMEM with 10% fetal bovine serum (FBS), 100 microg/ml streptomycin, and 100 IU/ml penicillin in 5% CO2 at 37° C. For the cytotoxicity assays, 1,500 tumor cells were plated into 96-well flat-bottom tissue culture plates in complete medium (see Tables 2 and 3). After 20 hours fresh media containing different concentrations of compounds disclosed herein added. […]
Measured property: IC50 (µM)
Give just the numeric value; µM need not be written.

**Q:** Consider the compound CCC(CC)(NC(=O)/C(C#N)=C/c1cccc(Cl)n1)c1ccc(OCCOCCN2CCN(C)CC2)cc1 [WP1732] . State its measured IC50.
**A:** 1.5

###

- System: Ovcar-5
- Method notes: Cytotoxicity assay (MTS, 72 hours)
- Type: cell-based
- Condition label: Homo sapiens, OVCAR-5, Table 3, Ovarian
- Experimental: Tumor cell lines were maintained in DMEM with 10% fetal bovine serum (FBS), 100 microg/ml streptomycin, and 100 IU/ml penicillin in 5% CO2 at 37° C. For the cytotoxicity assays, 1,500 tumor cells were plated into 96-well flat-bottom tissue culture plates in complete medium (see Tables 2 and 3). After 20 hours fresh media containing different concentrations of compounds disclosed herein added. […]
Measured property: pIC50
In simple prose, pIC50 is minus the logarithm base ten of a concentration in moles per litre.

**Q:** Under Ovcar-5, report pIC50 for CCC(CC)(NC(=O)/C(C#N)=C/c1cccc(Cl)n1)c1ccc(OCCOCCN2CCN(C)CC2)cc1
**A:** 5.77

###

- Tested on: PC3
- Method notes: Cytotoxicity assay (MTS, 72 hours)
- Format: cell-based
- Condition label: Table 3, Prostate
Measured property: pIC50
pIC50 here: minus log base 10 of the concentration, concentration in moles per litre.

**Q:** Consider the molecule C[C@H](NC(=O)/C(C#N)=C/c1cccc(Br)n1)c1ccccc1 [WP1066, reference compound] and give its recorded pIC50.
**A:** 5.64

###

- Test system: SU.86.86
- Method notes: Cytotoxicity assay (MTS, 72 hours)
- Assay type: cell-based
- Condition label: Table 3, Panc
Measured property: pIC50
Scale: negative log10 of molar concentration, which is what pIC50 denotes.

**Q:** Give reported pIC50 value for C[C@H](NC(=O)/C(C#N)=C/c1cccc(Br)n1)c1ccccc1 [WP1066, reference compound]
**A:** 5.60

###

- Test system: LNZ-428
- Method notes: Cytotoxicity assay (MTS, 72 hours)
- Assay type: cell-based
- Condition label: Table 3, GBM
Measured property: pIC50
Hey, just a heads up that pIC50 is the negative log base 10 of the concentration in molar.

**Q:** Respond only with pIC50 recorded for C[C@H](NC(=O)/C(C#N)=C/c1cccc(Br)n1)c1ccccc1 [WP1066, reference compound]
**A:** 5.82

Next, consider the following compound.
**Q:** Return the recorded pIC50 value; entry: CCC(CC)(NC(=O)/C(C#N)=C/c1cccc(Cl)n1)c1ccc(OCCOCCN2CCN(C)CC2)cc1
**A:** 5.64

###

- System: HH
- Method notes: Cytotoxicity assay (MTS, 72 hours)
- Assay type: cell-based
- Condition label: Table 3, CTCL
Measured property: IC50 (µM)
Form entry: value (µM) — number only.

**Q:** Retrieve IC50 measured for C[C@H](NC(=O)/C(C#N)=C/c1cccc(Br)n1)c1ccccc1 [WP1066, reference compound] and print it.
**A:** 2.3

###

- System: D423
- Method notes: Cytotoxicity assay (MTS, 72 hours)
- Type: cell-based
- Condition label: Table 3, GBM
Measured property: IC50 (nM)
Use nM as the unit, but write only the number.

**Q:** Output IC50 of CCC(CC)(NC(=O)/C(C#N)=C/c1cccc(Cl)n1)c1ccc(OCCOCCN2CCN(C)CC2)cc1
**A:** 1400

###

- Tested on: BT483
- Method notes: Cytotoxicity assay (MTS, 72 hours)
- Type: cell-based
- Condition label: Homo sapiens, BT-483, Table 3, Breast
Measured property: pIC50
// pIC50 is dimensionless: -log10 of concentration (M)

**Q:** Please indicate pIC50 recorded for CCC(CC)(NC(=O)/C(C#N)=C/c1cccc(Cl)n1)c1ccc(OCCOCCN2CCN(C)CC2)cc1
**A:** 5.64

###

- Tested on: Ovcar-5
- Method notes: Cytotoxicity assay (MTS, 72 hours)
- Assay type: cell-based
- Condition label: Table 3, Ovarian
Measured property: IC50 (nM)
The reply should be a number in nM, with the unit left off.

**Q:** For Ovcar-5, give the measured IC50 of the entry C[C@H](NC(=O)/C(C#N)=C/c1cccc(Br)n1)c1ccccc1 [WP1066, reference compound]
**A:** 1700

###

- System: Colo357-FG
- Method notes: Cytotoxicity assay (MTS, 72 hours)
- Assay type: cell-based, human
- Condition label: Homo sapiens, COLO 357/FG, 72 h, Table 2, Colo357-FG
- Method: Tumor cell lines were maintained in DMEM with 10% fetal bovine serum (FBS), 100 microg/ml streptomycin, and 100 IU/ml penicillin in 5% CO2 at 37° C. Colo357-FG and Colo357-L3: Colo357-FG, a fast-growing variant produced regional lymph node metastasis in 58% of nude mice after subcutaneous implantation and growth. It also produced hepatic metastasis in 64% and pulmonary metastasis in 43% of nude mice after intrasplenic implantation of tumor cells. See Vezeridis et al. (1990). […]
Measured property: pIC50
Scale: negative log10 of molar concentration, which is what pIC50 denotes.

Examples with answers:
**Q:** Recall and state the measured pIC50 for CCC(CC)(NC(=O)/C(C#N)=C/c1cccc(Cl)n1)c1ccc(OCCOCCN2CCOCC2)cc1 [WP 1723] .
**A:** 5.92

**Q:** Return the recorded pIC50 value; entry: CCC(CC)(NC(=O)/C(C#N)=C/c1ccccn1)c1ccc(OCCOCCN2CCOCC2)cc1 [WP 1724]
**A:** 5.55

**Q:** Dear colleague, please send me the reported pIC50 for CCCC(CCC)(NC(=O)/C(C#N)=C/c1cccc(Cl)n1)c1ccc(OCCN2CCOCC2)cc1 [WP 1733] when you can.
**A:** 6.02

**Q:** Please give measured pIC50 of the following entry: CCN(CC)CCOc1ccc(C(CC)(CC)NC(=O)/C(C#N)=C/c2cccc(Cl)n2)cc1 [WP 1794]
**A:** 6.22

**Q:** Report measured pIC50; entry is CCCC(CCC)(NC(=O)/C(C#N)=C/c1cccc(Cl)n1)c1ccc(OCCN(CC)CC)cc1 [WP 1734]
**A:** 5.82

**Q:** Please supply the value of reported pIC50 for the item CCC(CC)(NC(=O)/C(C#N)=C/c1cccc(Cl)n1)c1ccc(OCCN2CCOCC2)cc1 [WP 1721]
**A:** 5.96

Next:
**Q:** Report measured pIC50; entry is CCC(CC)(NC(=O)/C(C#N)=C/c1cccc(Cl)n1)c1ccc(OCCOCCN2CCN(C)CC2)cc1 [WP 1731]
**A:** 5.82

**Q:** Look up and report measured pIC50 for this entry: CCN(CC)CCOc1ccc(C(CC)(CC)NC(=O)/C(C#N)=C/c2ccccn2)cc1 [WP 1727]
**A:** 5.66

###

- System: MDA-PATC-53
- Method notes: Cytotoxicity assay (MTS, 72 hours)
- Type: cell-based
- Condition label: MDA-PATC53, 72 h, Table 3, Panc
Measured property: pIC50
pIC50 is defined as minus the log10 of a concentration measured in mol/L.

**Q:** Enter recorded pIC50 with MDA-PATC-53 for CCC(CC)(NC(=O)/C(C#N)=C/c1cccc(Cl)n1)c1ccc(OCCOCCN2CCN(C)CC2)cc1 here.
**A:** 5.74

###

Below is a list of entries, each paired with its recorded IC50 value.
- Tested on: HD2
- Method notes: Cytotoxicity assay (MTS, 72 hours)
- Assay type: cell-based
- Condition label: Table 3, Myeloma
- Method: After 20 hours fresh media containing different concentrations of compounds disclosed herein added. Cell number was counted after 72 hours by using MTS assay (Promega CellTiter AQ Non-Radioactive Cell Proliferation Assay kit, Madison, Wis., USA) by measuring absorbance at 490 nm with a 96-well plate reader. Data are presented as IC50 values derived from relative inhibition of proliferation plus SD of eight measurements. The number of cells in the presence of DMSO was taken as 100%.
Note: unit µM is implicit; provide only the numeric part.

**Q:** For the compound C[C@H](NC(=O)/C(C#N)=C/c1cccc(Br)n1)c1ccccc1 [WP1066, reference compound] , give its reported IC50.
**A:** 1.7

Continuing:
**Q:** Using the record for CCC(CC)(NC(=O)/C(C#N)=C/c1cccc(Cl)n1)c1ccc(OCCOCCN2CCN(C)CC2)cc1 [WP1732] , state its measured IC50.
**A:** 3.8

These measurements were taken from patent US10703721B2.
